Each entry below lists one item and its recorded CRF1R EC50 value.
Target: CRF1R
Assay: cell-based or functional assay
Ends that are not written are not given here.
MEASURED_PROPERTY: CRF1R EC50 (µM)

BINDER: ZGPPISIDLPFQLLREVIEIEKQEKEKQQAANNALLLATI (C-terminal amide) [SEQ ID NO 359]
MEASURED_PROPERTY: CRF1R EC50
UNIT_TAG: µM
NUMBER: 0.23
//
BINDER: ZGPPISIDLPFQLLRKVIEIEKQEKEKQQAANNAELLAEI (not fully specified; C-terminal amide) [SEQ ID NO 272]
MEASURED_PROPERTY: CRF1R EC50
UNIT_TAG: µM
NUMBER: 1
//
BINDER: ZGPPISIDLPHFLLRKMIEIEKQEKEKQQAANNRLLLDTI (C-terminal amide) [SEQ ID NO 219]
MEASURED_PROPERTY: CRF1R EC50
UNIT_TAG: µM
NUMBER: 0.0809
//
BINDER: ZGPPISIDLPYWLLRKVIEIEKQEKEKQQAANNALLLDTI (C-terminal amide) [SEQ ID NO 311]
MEASURED_PROPERTY: CRF1R EC50
UNIT_TAG: µM
NUMBER: 1
//
BINDER: PSLSIDLPLFLLRTLLELEKTQSQRERAEQNARIFARV-NH2 [SEQ ID NO 331]
MEASURED_PROPERTY: CRF1R EC50
UNIT_TAG: µM
NUMBER: 1
//
BINDER: IVLSLDVPIGLLQILLEQARHAAAHAAAHAQAHILAHV-NH2 [SEQ ID NO 367]
MEASURED_PROPERTY: CRF1R EC50
UNIT_TAG: µM
NUMBER: 1

Origin of the recorded values: patent US20030148958A1
